# Method notes: solubility in water
# Type: physicochemical
# Particulars: free acid
Reported property: solubility

Quick check: solubility of CC(C)(C)[N+]([O-])=Cc1ccc(S(=O)(=O)O)cc1S(=O)(=O)O [Compound I] ?
> 1000 mg/mL

###

# System: neuron loss following brain ischemia and reperfusion injury
# Method notes: neuronal density after 5 min bilateral carotid occlusion, compound i.p. 30 min before ischemia (Example 3)
# Assay type: in vivo, gerbil
# Particulars: 1000 mg/kg i.p., 30 min before ischemia
Reported property: Neuronal nuclei/100 micron field

> print(dat)
                                   compound                                 result
1              CC(C)(C)[N+]([O-])=Cc1ccccc1                                  Toxic
2    CC(C)(C)[N+]([O-])=Cc1ccccc1S(=O)(=O)O  0.98 Neuronal nuclei/100 micron field
3  CC(C)(C)[N+]([O-])=Cc1cccc(S(=O)(=O)O)c1  1.58 Neuronal nuclei/100 micron field
4  CC(C)(C)[N+]([O-])=Cc1ccc(S(=O)(=O)O)cc1S(=O)(=O)O  4.11 Neuronal nuclei/100 micron field

###

# Test system: neuron loss following brain ischemia and reperfusion injury
# Method notes: neuronal density after 5 min bilateral carotid occlusion, compound i.p. 30 min before ischemia (Example 3)
# Format: in vivo, gerbil
# Particulars: 10 mg/kg i.p., 30 min before ischemia
Reported property: Neuronal nuclei/100 micron field

Answered examples (3):
> print(dat)
                                   compound                                 result
1  CC(C)(C)[N+]([O-])=Cc1ccc(S(=O)(=O)O)cc1S(=O)(=O)O  2.57 Neuronal nuclei/100 micron field
2    CC(C)(C)[N+]([O-])=Cc1ccccc1S(=O)(=O)O  0.68 Neuronal nuclei/100 micron field
3  CC(C)(C)[N+]([O-])=Cc1cccc(S(=O)(=O)O)c1  0.81 Neuronal nuclei/100 micron field

Shift focus to the following entry.
State the recorded Neuronal nuclei/100 micron field for this entry: `CC(C)(C)[N+]([O-])=Cc1ccccc1`
1.13 Neuronal nuclei/100 micron field

###

# System: neuron loss following brain ischemia and reperfusion injury
# Method notes: neuronal density after 5 min bilateral carotid occlusion, compound i.p. 30 min before ischemia (Example 3)
# Format: in vivo, gerbil
# Particulars: 50 mg/kg i.p., 30 min before ischemia
# Experimental: In the experiments a test compound was administered to groups of six gerbils i.p. as a single dose 30 min before 5 min bilateral carotid occlusion. The density of neuronal nuclei in a 100 micron was measured. Two controls were present--controls which received no test compound and controls which received no test compound and no brain ischemia.
Reported property: Neuronal nuclei/100 micron field

> print(dat)
                                   compound                                 result
1  CC(C)(C)[N+]([O-])=Cc1ccccc1 [PBN, Alpha-phenyl tert butyl nitrone]  3.11 Neuronal nuclei/100 micron field
2  CC(C)(C)[N+]([O-])=Cc1cccc(S(=O)(=O)O)c1 [Compound 3-sulfo]  1.63 Neuronal nuclei/100 micron field
3  CC(C)(C)[N+]([O-])=Cc1ccccc1S(=O)(=O)O [Compound 2-sulfo, N-tert-butyl-α-(2-sulfophenyl) nitrone]  1.01 Neuronal nuclei/100 micron field

Form: Entry = CC(C)(C)[N+]([O-])=Cc1ccc(S(=O)(=O)O)cc1S(=O)(=O)O [Compound I] | System = neuron loss following brain ischemia and reperfusion injury | Neuronal nuclei/100 micron field = ____
4.11 Neuronal nuclei/100 micron field
